Test system: PLC-PRF-5 cells
MEASUREMENT_NOTES: Inhibition of proliferation of PLC-PRF-5 cells (ATPlite)
Assay type: cell-based
TEST_CONDITIONS: Homo sapiens, PLC-PRF-5, PLC-PRF-5 cells; read-out: PLC-PRF-5 cell proliferation IC50
pIC50: −log10 of the molar value.
Label not satisfied if pIC50 falls below 6; label satisfied in every other case.

O=C(Nc1cc(N2CCS(=O)(=O)CC2)cc(C(F)(F)F)c1)Nc1ccc(Oc2ccnc(NC(=O)C3CC3)c2)c(F)c1; not satisfied
CC(F)(F)c1cccc(NC(=O)Nc2ccc(Oc3ccnc(NC(=O)C4CC4)c3)cc2F)c1; satisfied
O=C(Nc1ccc(Oc2ccnc(NC(=O)C3CC3)c2)c(F)c1)Nc1ccc(Cl)c(OC(F)(F)F)c1; not satisfied
O=C(Nc1ccc(Oc2cc(NC(=O)C3CC3)ncn2)cc1)Nc1ccc(F)c(C(F)(F)F)c1; not satisfied
CC(F)(F)c1ccc(F)c(NC(=O)Nc2cnc(Oc3ccnc(NC(=O)C4CC4)c3)c(F)c2)c1; satisfied
O=C(Nc1ccc(Oc2ccnc(NC(=O)C3CC3)c2)cc1)Nc1cc(F)cc(C(F)(F)F)c1; satisfied
O=C(Nc1cc(F)cc(C(F)(F)F)c1)Nc1ccc(Oc2ccnc(NC(=O)C3CC3)c2)cc1F; satisfied
Cc1ccc(Oc2ccnc(NC(=O)C3CC3)c2)cc1NC(=O)Nc1ccc(F)c(C(C)(F)F)c1; not satisfied
O=C(Nc1cccc(C(F)(F)F)c1)Nc1ccc(Oc2cc(NC(=O)C3CC3)ncn2)cc1F; not satisfied
Nc1nnc(-c2cc(NC(=O)Nc3ccc(Oc4ccnc(NC(=O)C5CC5)c4)c(F)c3)cc(C(F)(F)F)c2)o1; not satisfied
CN1CCC(C(=O)c2cc(NC(=O)Nc3ccc(Oc4ccnc(NC(=O)C5CC5)c4)c(F)c3)cc(C(F)(F)F)c2)CC1; satisfied

###

System: PLC-PRF-5 cells
MEASUREMENT_NOTES: Inhibition of proliferation of PLC-PRF-5 cells (ATPlite)
Assay type: cell-based
TEST_CONDITIONS: Homo sapiens, PLC-PRF-5, PLC-PRF-5 cells; read-out: PLC-PRF-5 cell proliferation IC50
pIC50: −log10 of the molar value.
Some compounds, each annotated with its measured pIC50.
MEASURED_METRIC: pIC50

Cc1cc(NC(=O)Nc2cccc(OC(F)(F)F)c2)ccc1Oc1cc(NC(=O)C2CC2)ncn1; 6.11
Cc1cc(Oc2cc(NC(=O)C3CC3)ncn2)ncc1NC(=O)Nc1ccc(Cl)c(C(F)(F)F)c1; 4.70
CC1CN(c2cc(NC(=O)Nc3ccc(Oc4ccnc(NC(=O)C5CC5)c4)c(F)c3)cc(C(F)(F)F)c2)CC(C)O1 (stereo not shown); 6.17
CN(C)C1CCN(c2cc(NC(=O)Nc3ccc(Oc4ccnc(NC(=O)C5CC5)c4)c(F)c3)cc(C(F)(F)F)c2)C1 (stereo not shown); 6.63

###

TARGET_DESC: KDR kinase (790-1356 AA) (Homo sapiens (Human))
Sequence (P35968 790-1356): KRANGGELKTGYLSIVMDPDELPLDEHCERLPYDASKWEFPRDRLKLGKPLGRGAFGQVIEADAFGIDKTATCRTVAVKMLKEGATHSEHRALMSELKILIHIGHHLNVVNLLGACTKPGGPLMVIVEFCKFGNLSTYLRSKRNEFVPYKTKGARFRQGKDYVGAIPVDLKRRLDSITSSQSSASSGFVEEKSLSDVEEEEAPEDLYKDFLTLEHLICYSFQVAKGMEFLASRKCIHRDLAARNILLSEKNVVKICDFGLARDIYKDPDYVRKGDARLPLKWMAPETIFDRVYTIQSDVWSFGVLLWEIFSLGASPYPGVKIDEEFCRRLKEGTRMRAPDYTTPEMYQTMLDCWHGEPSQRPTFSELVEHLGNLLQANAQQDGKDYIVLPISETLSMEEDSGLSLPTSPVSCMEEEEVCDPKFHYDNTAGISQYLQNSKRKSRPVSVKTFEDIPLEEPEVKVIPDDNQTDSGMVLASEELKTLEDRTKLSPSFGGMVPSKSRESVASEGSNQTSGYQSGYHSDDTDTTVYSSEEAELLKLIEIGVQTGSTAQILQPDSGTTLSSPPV
pIC50: −log10 of the molar value.
Label not fulfilled if pIC50 falls below 8; label fulfilled in every other case.

O=C(Nc1cc(-c2cccnc2)cc(C(F)(F)F)c1)Nc1ccc(Oc2ccnc(NC(=O)C3CC3)c2)c(F)c1; fulfilled
CN1CCC(Oc2cc(NC(=O)Nc3ccc(Oc4ccnc(NC(=O)C5CC5)c4)c(F)c3)cc(C(F)(F)F)c2)CC1; not fulfilled
O=C(Nc1ccc(Cl)c(C(F)(F)F)c1)Nc1ccc(Oc2ccnc(NC(=O)C3CC3)c2)cc1F; fulfilled

###

Tested on: PLC-PRF-5 cells
MEASUREMENT_NOTES: Inhibition of proliferation of PLC-PRF-5 cells (ATPlite)
Assay type: cell-based
TEST_CONDITIONS: Homo sapiens, PLC-PRF-5, PLC-PRF-5 cells; read-out: PLC-PRF-5 cell proliferation IC50
pIC50: −log10 of the molar value.
Below, each entry is listed alongside its reported pIC50.
MEASURED_METRIC: pIC50

Cc1cc(Oc2ccnc(NC(=O)C3CC3)c2)ccc1NC(=O)Nc1ccc(F)c(C(C)(F)F)c1 [Exe. 200]; 5.50
O=C(Nc1cc(NC2CCNCC2)cc(C(F)(F)F)c1)Nc1ccc(Oc2ccnc(NC(=O)C3CC3)c2)c(F)c1 [Exe. 069]; 4.98
CN1CCC(c2cc(NC(=O)Nc3ccc(Oc4ccnc(NC(=O)C5CC5)c4)cn3)cc(C(F)(F)F)c2)CC1 [Exe. 134]; 6.70
Cc1cc(Oc2ccnc(NC(=O)C3CC3)c2)ccc1NC(=O)Nc1cc(F)cc(C(C)(F)F)c1 [Exe. 197]; 5.48
CN1CCC(Nc2cc(NC(=O)Nc3ccc(Oc4ccnc(NC(=O)C5CC5)c4)c(F)c3)cc(C(F)(F)F)c2)CC1 [Exe. 161]; 5.87
Cc1cc(NC(=O)Nc2cccc(C(F)(F)F)c2)ccc1Oc1cc(NC(=O)C2CC2)ncn1 [Exe. 112]; 5.70
O=C(Nc1ccc(Oc2ccnc(NC(=O)C3CC3)c2)c(F)c1)Nc1ccc(F)c(C(F)(F)F)c1 [Exe. 153]; 6.13

###

Attribute: pIC50
Tested on: PLC-PRF-5 cells
MEASUREMENT_NOTES: Inhibition of proliferation of PLC-PRF-5 cells (ATPlite)
Type: cell-based
TEST_CONDITIONS: Homo sapiens, PLC-PRF-5, PLC-PRF-5 cells; read-out: PLC-PRF-5 cell proliferation IC50
pIC50: −log10 of the molar value.
MEASURED_METRIC: pIC50

O=C(Nc1ccc(Oc2ccnc(NC(=O)C3CC3)c2)c(F)c1)Nc1ccc(C(F)(F)F)cc1Cl; 5.39
O=C(Nc1cc(N2CCN(CCF)CC2)cc(C(F)(F)F)c1)Nc1ccc(Oc2ccnc(NC(=O)C3CC3)c2)c(F)c1; 6.16
CC(F)(F)c1ccc(F)c(NC(=O)Nc2ccc(Oc3ccnc(NC(=O)C4CC4)c3)c(F)c2)c1; 7.64
Cc1cc(NC(=O)Nc2cc(C(C)(F)F)ccc2F)ccc1Oc1cc(NC(=O)C2CC2)ncn1; 6.90
Cc1cc(Oc2ccnc(NC(=O)C3CC3)c2)ccc1NC(=O)Nc1cc(OC(F)(F)F)ccc1F; 6.10
CS(=O)(=O)c1cc(NC(=O)Nc2ccc(Oc3ccnc(NC(=O)C4CC4)c3)cn2)cc(C(F)(F)F)c1; 6.33
Cc1cc(Oc2cc(NC(=O)C3CC3)ncn2)ccc1NC(=O)Nc1cc(Cl)cc(C(F)(F)F)c1; 4.70
Cc1cc(NC(=O)Nc2ccc(Cl)c(C(F)(F)F)c2)ccc1Oc1cc(NC(=O)C2CC2)ncn1; 5.36
Cc1ccc(Oc2ccnc(NC(=O)C3CC3)c2)cc1NC(=O)Nc1ccc(Cl)c(C(C)(F)F)c1; 5.48
O=C(Nc1ccc(Oc2cc(NC(=O)C3CC3)ncn2)cc1F)Nc1cc(C(F)(F)F)ccc1F; 6.49
Cc1cc(Oc2ccnc(NC(=O)C3CC3)c2)ncc1NC(=O)Nc1ccc(Cl)c(C(F)(F)F)c1; 5.39
O=C(Nc1ccc(Oc2ccnc(NC(=O)C3CC3)c2)cc1)Nc1ccc2c(c1)C(F)(F)CCO2; 6.22
O=C(Nc1cccc(C(F)(F)F)c1)Nc1cnc(Oc2ccnc(NC(=O)C3CC3)c2)c(F)c1; 6.62
CC(C)N1CCN(c2cc(NC(=O)Nc3ccc(Oc4ccnc(NC(=O)C5CC5)c4)c(F)c3)cc(C(F)(F)F)c2)CC1; 6.47
O=C(Nc1ccc(Cl)c(C(F)(F)F)c1)Nc1cc(Oc2cc(NC(=O)C3CC3)ncn2)ccc1F; 5.47

###

The entries below are paired with their reported log10 of IC50.
Tested on: PLC-PRF-5 cells
MEASUREMENT_NOTES: Inhibition of proliferation of PLC-PRF-5 cells (ATPlite)
Assay type: cell-based
TEST_CONDITIONS: Homo sapiens, PLC-PRF-5, PLC-PRF-5 cells; read-out: PLC-PRF-5 cell proliferation IC50
MEASURED_METRIC: log10 of IC50 (log10 of the value in nM)

O=C(Nc1ccc(Oc2ccnc(NC(=O)C3CC3)c2)cc1)Nc1ccc(F)c(C(F)(F)F)c1; 3.18
O=C(Nc1ccc(Oc2ccnc(NC(=O)C3CC3)c2)nc1)Nc1cc(N2CCS(=O)(=O)CC2)cc(C(F)(F)F)c1; 3.77
Cc1cc(Oc2cc(NC(=O)C3CC3)ncn2)ccc1NC(=O)Nc1cc(C2CCN(C)CC2)cc(C(F)(F)F)c1; 3.47
N#Cc1cc(NC(=O)Nc2ccc(Oc3ccnc(NC(=O)C4CC4)c3)c(F)c2)cc(C(F)(F)F)c1; 2.94
O=C(Nc1ccc(Oc2cc(NC(=O)C3CC3)ncn2)cc1)Nc1cc(F)cc(C(F)(F)F)c1; 3.41
Cc1cc(Oc2cc(NC(=O)C3CC3)ncn2)ccc1NC(=O)Nc1cccc(C(F)(F)F)c1; 3.78
O=C(Nc1ccc(F)c(OC(F)(F)F)c1)Nc1ccc(Oc2ccnc(NC(=O)C3CC3)c2)cc1F; 2.79
Cc1cc(Oc2ccnc(NC(=O)C3CC3)c2)ncc1NC(=O)Nc1cc(C(F)(F)F)ccc1F; 2.81
O=C(Nc1ccc(Cl)c(C(F)(F)F)c1)Nc1ccc(Oc2ccnc(NC(=O)C3CC3)c2)cn1; 2.78
Cc1nc(NC(=O)Nc2ccc(Cl)c(C(F)(F)F)c2)ccc1Oc1cc(NC(=O)C2CC2)ncn1; 4.29
COc1ccc(NC(=O)Nc2cnc(Oc3ccnc(NC(=O)C4CC4)c3)c(C)c2)cc1C(F)(F)F; 3.24
O=C(Nc1cc(C2CCN(C3CC3)CC2)cc(C(F)(F)F)c1)Nc1ccc(Oc2ccnc(NC(=O)C3CC3)c2)c(F)c1; 3.18
O=C(Nc1ccc(OC(F)(F)F)cc1)Nc1ccc(Oc2ccnc(NC(=O)C3CC3)c2)c(F)c1; 3.69
O=C(Nc1ccc(Oc2ccnc(NC(=O)C3CC3)c2)c(F)c1)Nc1cc(C2CC2)ccc1F; 1.63
O=C(Nc1cncc(C(F)(F)F)c1)Nc1ccc(Oc2ccnc(NC(=O)C3CC3)c2)c(F)c1; 2.53
Cc1cc(Oc2cc(NC(=O)C3CC3)ncn2)c(F)cc1NC(=O)Nc1ccc(Cl)c(C(F)(F)F)c1; 4.06
